The origin of these recorded values is patent US8338565B2.

target-entity: TNFα / TNFα receptor (TNFα R1/Fc) (Homo sapiens, UniProt P01375)
Construct: purchased R&D Systems
Sequence (P01375 77-233 limits assumed, species assumed): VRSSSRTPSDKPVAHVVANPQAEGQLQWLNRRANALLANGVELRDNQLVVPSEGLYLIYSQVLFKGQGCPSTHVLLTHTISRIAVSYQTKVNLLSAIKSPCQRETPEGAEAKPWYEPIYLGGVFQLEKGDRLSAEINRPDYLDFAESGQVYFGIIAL
experiment-notes: Inhibition of binding of TNFα to the TNFα receptor (plate ELISA competition)
measurement-parameters: Table 2; read-out: Activity (IC50, inhibition of TNFα binding to TNFα R1/Fc)
pIC50: −log10 of the molar value. Numbered stars: 1 amine (or outer) side, 2 acyl side, 3 side chain; on linkers, the order of the positions; unused ones are H or OH. Bridge positions count the residues as written; N and C are the ends. Square brackets hold non-standard residues; d marks the D form. Peptide text beside a SMILES is read from it. Phe(4-CF3) = N[C@@H](Cc1ccc(C(F)(F)F)cc1)C(=O)O; dPhe(3-OMe) = COc1cccc(C[C@@H](N)C(=O)O)c1; Bip = N[C@@H](Cc1ccc(-c2ccccc2)cc1)C(=O)O; Phe(4-NH2) = Nc1ccc(C[C@H](N)C(=O)O)cc1; d2Thi = N[C@H](Cc1cccs1)C(=O)O; Suc = O=C(CCC(=O)[*:2])[*:1]; Nphe = O=C(O)CNCc1ccccc1
property-label: pIC50

Query block: Output measured pIC50 for this item: O=C1CCC(=O)N[C@H](CCc2ccccc2)C(=O)N[C@@H](Cc2ccc(-c3ccccc3Cl)cc2)C(=O)N[C@H](Cc2ccccc2)C(=O)N[C@H](C(=O)O)Cc2ccc(cc2)N1 [Compound 170]
Result block: 4.00 to 4.52

Query block: Output measured pIC50 for this item: O=C1CCC(=O)N[C@H](Cc2cccs2)C(=O)N[C@@H](Cc2ccc(-c3ccccc3)cc2)C(=O)N(Cc2ccccc2)CC(=O)N[C@H](C(=O)O)Cc2ccc(cc2)N1 [Compound 55] ([d2Thi][Bip][Nphe][Phe(4-NH2)]-OH; linker N-4 via Suc)
Result block: < 4.00

Query block: Output measured pIC50 for this item: COc1ccc(-c2ccc(C[C@@H]3NC(=O)[C@@H](Cc4cccs4)NC(=O)[C@H](O)[C@@H](O)C(=O)Nc4ccc(cc4)C[C@@H](C(=O)O)NC(=O)[C@@H](Cc4ccccc4)NC3=O)cc2)cc1 [Compound 333]
Result block: 4.00 to 4.52

Query block: Output measured pIC50 for this item: COc1cccc(C[C@H]2NC(=O)CCC(=O)Nc3ccc(cc3)C[C@@H](C(=O)O)NC(=O)[C@@H](Cc3ccccc3)NC(=O)[C@H](Cc3ccc(C(F)(F)F)cc3)NC2=O)c1 [Compound 138] ([dPhe(3-OMe)][Phe(4-CF3)][dF][Phe(4-NH2)]-OH; linker N-4 via Suc)
Result block: < 4.00

====

Listed next: entries and their corresponding IC50.
target-entity: TNFα / TNFα receptor (TNFα R1/Fc) (Homo sapiens, UniProt P01375)
Construct: purchased R&D Systems
experiment-notes: Inhibition of binding of TNFα to the TNFα receptor (plate ELISA competition)
measurement-parameters: Table 2; read-out: Activity (IC50, inhibition of TNFα binding to TNFα R1/Fc)
Experimental: The compounds listed in Table 2 below were assayed for ability to inhibit binding of TNFα to the TNFα receptor (TNFα R1/Fc). The assays were performed as described in the following procedure: TNFα (R&D Systems) was coated on high binding plate wells (Corning 96-well) at a single uniform concentration of 15 nM, 100 μL/well in PBS. […] The TMB reaction was stopped with the addition of 0.5N HCl and then the plate was read for absorbance at 450 nm.
Numbered stars: 1 amine (or outer) side, 2 acyl side, 3 side chain; on linkers, the order of the positions; unused ones are H or OH. Bridge positions count the residues as written; N and C are the ends. Square brackets hold non-standard residues; d marks the D form. Peptide text beside a SMILES is read from it. Bip = N[C@@H](Cc1ccc(-c2ccccc2)cc1)C(=O)O; dPhe(4-Cl) = N[C@H](Cc1ccc(Cl)cc1)C(=O)O; Phe(4-NH2) = Nc1ccc(C[C@H](N)C(=O)O)cc1; 2Thi = N[C@@H](Cc1cccs1)C(=O)O; d2Thi = N[C@H](Cc1cccs1)C(=O)O; Suc = O=C(CCC(=O)[*:2])[*:1]

O=C1CCC(=O)N[C@H](Cc2cccs2)C(=O)N[C@@H](Cc2ccc(-c3ccccc3)cc2)C(=O)N[C@H](Cc2ccc(Cl)cc2)C(=O)N[C@H](C(=O)O)Cc2ccc(cc2)N1 [Compound 81] ([d2Thi][Bip][dPhe(4-Cl)][Phe(4-NH2)]-OH; linker N-4 via Suc)
> 100 µM
O=C(O)CCCNC(=O)[C@@H]1Cc2ccc(cc2)OCC(=O)N[C@@H](Cc2ccncc2)C(=O)N[C@H](Cc2ccc(-c3ccccc3)cc2)C(=O)N[C@@H](CCc2ccccc2)C(=O)N1
< 10 µM
COc1ccc(C[C@@H]2NC(=O)[C@@H](Cc3ccc(-c4ccccc4)cc3)NC(=O)[C@H](Cc3ccncc3)NC(=O)COc3ccc(cc3)C[C@@H](C(=O)O)NC2=O)cc1
< 10 µM
CC(=O)NCCCC[C@@H]1NC(=O)[C@H](Cc2ccc(-c3ccccc3)cc2)NC(=O)[C@H](Cc2cccs2)NC(=O)COc2ccc(cc2)C[C@@H](C(=O)O)NC1=O
> 100 µM

Query block: Recall the reported IC50 of O=C1CCC(=O)N[C@H](Cc2cccs2)C(=O)N[C@@H](Cc2cccs2)C(=O)N[C@H](Cc2ccccc2)C(=O)N[C@H](C(=O)O)Cc2ccc(cc2)N1 [Compound 97] ([d2Thi][2Thi][dF][Phe(4-NH2)]-OH; linker N-4 via Suc) on TNFα / TNFα receptor (TNFα R1/Fc) (Homo sapiens, UniProt P01375) and write it down.
Result block: > 100 µM
